Origin of measurements: ChEMBL document CHEMBL1201862

Assignment: determine reported GI50 for the given molecules.
# Test system: T47D
# protocol-details: NCI tumour cell line growth inhibition, 48 h
Calls of active or inactive are those of the source. Rule as the data show it: active = GI50 up to about 1.1 µM and inactive = higher.

CCOC(=O)c1c[nH]c(C(=O)OCC)c1-c1cccn1-c1ccccc1    28.1 µM (inactive)
Nc1nc(Cl)cc(Oc2ccc(Cl)cc2)n1    32.4 µM (inactive)
Cc1cnc(/N=c2\sc(C)cn2-c2ncc(C)s2)s1    > 100 µM (inactive)
c1ccc(C(NC2=NCCO2)c2ccccc2)cc1    > 10 µM (inactive)

Would you mind listing GI50 for each of the following molecules?
1. COc1cc2c(cc1Cl)[n+]([O-])c(C#N)c(N1CCN(c3ccc([N+](=O)[O-])cc3)CC1)[n+]2[O-]
2. C[C@@H]1[C@@H](c2ccccc2)O[B-](c2ccccc2)(c2ccccc2)[N+]1(C)C
3. O=C(N1CCOCC1)C1(c2ccccc2)CCNCC1
4. COc1cc(O)cc2oc(-c3ccc(O)cc3)cc(=O)c12

["3.48 µM (inactive)", "54.5 µM (inactive)", "> 100 µM (inactive)", "50.4 µM (inactive)"]
